- TEST SUMMARY: amyloid nucleation score (Sup35N fusion, yeast selection) (log enrichment); library NNK3; higher = more nucleation; inactive = no reads after selection;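 note: zero at mode of non-aggregating sequences after 7 days selection at 30°C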
RESULT TYPE: amyloid nucleation score

IQANSLLSRLLRLSGNCCWM = 0.127
AYLSFLLFCCCKTLVWLVLR = 0.841
SVKTGYVDRPNLRTTFYGCL = inactive
TWLGLLCREGSSNWV = inactive
AGKYIQNYEVKGCLSAYRAG = inactive
PTIHGVMGVEPMSYSLL = inactive

Request: For DDAKFVWYVNINYRYMDSRS , what is its reported amyloid nucleation score?
Result: 2.16

---

- TEST SUMMARY: amyloid nucleation score (Sup35N fusion, yeast selection) (log enrichment); library NNK2; higher = more nucleation; inactive = no reads after selection
RESULT TYPE: amyloid nucleation score

Worked examples follow.
MPPRGKSWSVRTSLWKQIFM = 3.24
RFVDEPWNTRDTDFLYV = -0.368
LLALTFSTETQGRHTKCHSL = 4.07
SSIINMTDAVGWFLELKNGE = 0.177
TVVGSLSVVF = 1.47

Request: # input substance: SFSVVGNHHVCMDYDMVLNG ; wanted: its amyloid nucleation score
Result: 0.315

Request: GET /values?readout=amyloid nucleation score&item= LINWVVVLYG
Result: 1.9

Request: I would be grateful if you could share the reported amyloid nucleation score for MNRYSKIVSQFVLAVDSTYF .
Result: 0.433

---

- TEST SUMMARY: amyloid nucleation score (Sup35N fusion, yeast selection) (log enrichment); library NNK1; higher = more nucleation; inactive = no reads after selection
Tag: satisfied if measured amyloid nucleation score is not below 0.4, not satisfied if it is.

Look over these answered cases.
LYQCRNDCCYDWMLWYTWRS = satisfied
TDPLSYTFVTSPVMVTRGSS = not satisfied
CWCMFCTASL = satisfied

Request: Does amyloid nucleation score meet or surpass 0.4 for FLFYRCLGVKFFVFFMIVSK ?
Result: not satisfied

Request: Answer whether amyloid nucleation score of EDSYFYFRIEGISTVKCMAR is greater than or equal to 0.4.
Result: not satisfied

Request: Tell me whether amyloid nucleation score is at least 0.4 here: HFGWNLGPMHTMKSSV
Result: satisfied

---

We begin with a simple list: items and their reported amyloid nucleation score.
- TEST SUMMARY: amyloid nucleation score (Sup35N fusion, yeast selection) (log enrichment); library NNK1; higher = more nucleation; inactive = no reads after selection
// keep it numeric: no unit symbol after the value

In the examples that follow, each entry is paired with its recorded amyloid nucleation score.
IHGTMRGYWHMLFQELNIGV = -0.152
LQSFVLLGDRIYRRFCVLMN = 0.048

Request: Using the record for SRIAMS , report its amyloid nucleation score.
Result: 0.368

Request: Please report the recorded amyloid nucleation score for YYNVYTTYTASVWGTYRWNV .
Result: -1.45

Request: amyloid nucleation score lookup needed for LGLYSVCC , thanks.
Result: -0.219

Request: What value of amyloid nucleation score has been reported for the following substance? VDRLAEMHTLEWARSVRLSV
Result: 0.55

Request: Sample MPKAQDALTLKNGELKRLSG — what was its amyloid nucleation score?
Result: 0.295

Request: Item under review: DMSFRYLSGSVNLCVVHLRR . Reported amyloid nucleation score?
Result: -0.244
